Value source: paper PMC3790000

SYSTEM_TESTED: T1, YFP-STIM1 233–485 (human, UniProt Q13586-1 233-485)
T1 construct: the YFP fluorescence is the read-out of the thermophoresis; also called STIM1 233–485 C-terminal fragment; slightly extended OASF fragment; source: HEK293, transfected, in lysate (supernatant after Nonidet P40 lysis)
METHOD_NOTES: MST; monolith NT.115 (Nanotemper); YFP-STIM1 233–485 (or free YFP) in HEK293 cell lysate kept constant, Orai1 peptide varied, up to 16 dilutions, 5 min incubation, glass capillaries; curve fitted to a one-site binding model
TEST_SETTINGS: one partner purified
QUANTITY_KIND: pKd
Give bare numbers, as −log10 of the molar value.

Prompt: Entry under review: SMQAESERKLYLSRAKLKASSR (peptide, UniProt Q96D31-1 70-91, looked up, also called Orai1 NT(aa70–91 L74E/W76E); source: synthetic peptide, bought: peptide 2.0) [Orai1 aa70–91 L74E/W76E N-terminal peptide] . Reported pKd?
Response: 3.39
